B1: library; numbered along this chain (parent)
chain: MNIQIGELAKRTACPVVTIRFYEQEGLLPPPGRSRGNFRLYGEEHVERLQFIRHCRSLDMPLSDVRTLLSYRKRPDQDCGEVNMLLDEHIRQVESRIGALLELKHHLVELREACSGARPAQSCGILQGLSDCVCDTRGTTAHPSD

- Variants of: B1
- protocol-details: sfGFP reporter fluorescence (15 h) (µM FITC); higher = stronger transcriptional activation
- condition-set: library round: Round 0; ligand: 30 µM Zn
Decision: sfGFP reporter fluorescence >= 0.3 yields true (1), all other cases yield false (0).

Given the entry E43T , answer whether its sfGFP reporter fluorescence meets or surpasses 0.3.
true (1)

What about this variant? E94A
true (1)

What about this variant? P15T
true (1)

What about this variant? C114R
false (0)

What about this variant? L85R
false (0)

What about this variant? Y71A
false (0)

What about this variant? E7Q
true (1)

What about this variant? L110S
false (0)

What about this variant? L28K
false (0)

What about this variant? E112R
true (1)

What about this variant? E112D
true (1)

What about this variant? I3E
false (0)

What about this variant? I3G
false (0)

What about this variant? R111T
true (1)

What about this variant? C114Q
false (0)

What about this variant? G6F
false (0)

What about this variant? L85E
false (0)

What about this variant? E112Y
false (0)

What about this variant? P143K
true (1)

What about this variant? K104Q
true (1)

What about this variant? E109R
true (1)

What about this variant? L126G
false (0)

What about this variant? Y22R
false (0)

What about this variant? C55H
false (0)

What about this variant? L62D
false (0)

What about this variant? C55W
false (0)

What about this variant? I97N
true (1)

What about this variant? L107C
true (1)

What about this variant? M60L D64K K104V G128M
true (1)

What about this variant? P30C
true (1)

What about this variant? E109N
true (1)

What about this variant? R39T
false (0)

What about this variant? I97A
true (1)

What about this variant? V46D
false (0)

What about this variant? P143M
true (1)

What about this variant? P31A
true (1)

What about this variant? P15Y
true (1)

What about this variant? D64H
true (1)

What about this variant? N83A
false (0)

What about this variant? E112K
true (1)

What about this variant? I97S
true (1)

Every entry's value here was drawn from the supplement of paper PMC12783771.
